# Tested on: Staphylococcus aureus
# ASSAY_METHOD_TEXT: Antibacterial activity against methicillin-resistant Staphylococcus aureus ATCC 43300 after 24 hrs by resazurin dye based microdilution assay
# Assay type: functional
# APPLIED_CONDITIONS: ATCC 43300, 24 h
MEASUREMENT_KIND: MIC

Below are worked cases with known answers.
[
  {
    "COMPOUND": "O=CN1N=C(c2ccc(Cl)cc2)CC1c1cccc(Nc2ccnc3cc(Cl)ccc23)c1 (stereo unspecified)",
    "TGT": "Staphylococcus aureus",
    "MIC": "> 1000 µg/mL"
  },
  {
    "COMPOUND": "COc1cc(C2=NN(c3ccccc3)C(c3cccc(Nc4ccnc5cc(Cl)ccc45)c3)C2)cc(OC)c1OC (stereo unspecified)",
    "TGT": "Staphylococcus aureus",
    "MIC": "> 1000 µg/mL"
  },
  {
    "COMPOUND": "CC(=O)N1N=C(c2ccc(Cl)cc2)CC1c1cccc(Nc2ccnc3cc(Cl)ccc23)c1 (stereo unspecified)",
    "TGT": "Staphylococcus aureus",
    "MIC": "> 1000 µg/mL"
  },
  {
    "COMPOUND": "COc1ccc(C2=NN(C=O)C(c3cccc(Nc4ccnc5cc(Cl)ccc45)c3)C2)cc1 (stereo unspecified)",
    "TGT": "Staphylococcus aureus",
    "MIC": "> 1000 µg/mL"
  },
  {
    "COMPOUND": "O=C(/C=C/c1cccc(Nc2ccnc3cc(Cl)ccc23)c1)c1ccccc1",
    "TGT": "Staphylococcus aureus",
    "MIC": "> 1000 µg/mL"
  }
]

Query compound follows.
Need MIC, item "O=Cc1cccc(Nc2ccnc3cc(Cl)ccc23)c1"
500 µg/mL

* * *

# Tested on: 786-0
# ASSAY_METHOD_TEXT: Growth inhibition of human 786-0 cells incubated for 48 hrs by sulforhodamine B assay
# Format: functional
# APPLIED_CONDITIONS: 786-0, 48 h
MEASUREMENT_KIND: LC50 (µM)
One number for each entry, in µM.

[
  {
    "COMPOUND": "COc1ccc(C(=O)/C=C/c2cccc(Nc3ccnc4cc(Cl)ccc34)c2)cc1",
    "TGT": "786-0",
    "MEASUREMENT_KIND": "LC50",
    "UNIT_SYMBOL": "µM",
    "NUMERIC_READOUT": 77.7
  },
  {
    "COMPOUND": "COc1ccc(C2=NN(C=O)C(c3cccc(Nc4ccnc5cc(Cl)ccc45)c3)C2)cc1 (centres undefined)",
    "TGT": "786-0",
    "MEASUREMENT_KIND": "LC50",
    "UNIT_SYMBOL": "µM",
    "NUMERIC_READOUT": 79.8
  }
]

Can you give me LC50 for all of these, one by one?
1. COc1cc(C(=O)/C=C/c2cccc(Nc3ccnc4cc(Cl)ccc34)c2)cc(OC)c1OC
2. O=CN1N=C(c2ccc(Cl)cc2)CC1c1cccc(Nc2ccnc3cc(Cl)ccc23)c1 (centres undefined)

1. 4.89
2. 62.7

* * *

# Tested on: U-937
# ASSAY_METHOD_TEXT: Cytotoxicity against human U937 cells after 72 hrs by MTT assay
# Assay type: cell-based
# APPLIED_CONDITIONS: u-937, 72 h
Hi! Just check whether LC50 is below 5 µg/mL. Below gives 1.0, equal or above gives 0.0.

# example entries with known answers
[
  {
    "COMPOUND": "Cc1ccc(C2=NN(C=O)C(c3cccc(Nc4ccnc5cc(Cl)ccc45)c3)C2)cc1 (stereo unspecified)",
    "TGT": "U-937",
    "LABEL_CLASS": 1.0
  },
  {
    "COMPOUND": "O=C(/C=C/c1cccc(Nc2ccnc3cc(Cl)ccc23)c1)c1ccc(Cl)cc1",
    "TGT": "U-937",
    "LABEL_CLASS": 1.0
  },
  {
    "COMPOUND": "Clc1ccc(C2=NN(c3ccccc3)C(c3cccc(Nc4ccnc5cc(Cl)ccc45)c3)C2)cc1 (stereo unspecified)",
    "TGT": "U-937",
    "LABEL_CLASS": 0.0
  },
  {
    "COMPOUND": "O=C(/C=C/c1cccc(Nc2ccnc3cc(Cl)ccc23)c1)c1ccc(Br)cc1",
    "TGT": "U-937",
    "LABEL_CLASS": 1.0
  },
  {
    "COMPOUND": "COc1cc(C2=NN(C=O)C(c3cccc(Nc4ccnc5cc(Cl)ccc45)c3)C2)cc(OC)c1OC (stereo unspecified)",
    "TGT": "U-937",
    "LABEL_CLASS": 0.0
  },
  {
    "COMPOUND": "Clc1ccc2c(Nc3cccc(C4CC(c5ccccc5)=NN4c4ccccc4)c3)ccnc2c1 (stereo unspecified)",
    "TGT": "U-937",
    "LABEL_CLASS": 0.0
  },
  {
    "COMPOUND": "Cc1ccc(C2=NN(c3ccc(Cl)cc3)C(c3cccc(Nc4ccnc5cc(Cl)ccc45)c3)C2)cc1 (stereo unspecified)",
    "TGT": "U-937",
    "LABEL_CLASS": 0.0
  },
  {
    "COMPOUND": "CC(=O)N1N=C(c2ccc(C)cc2)CC1c1cccc(Nc2ccnc3cc(Cl)ccc23)c1 (stereo unspecified)",
    "TGT": "U-937",
    "LABEL_CLASS": 1.0
  }
]

LC50 under 5 µg/mL? Item: COc1cc(C2=NN(c3ccccc3)C(c3cccc(Nc4ccnc5cc(Cl)ccc45)c3)C2)cc(OC)c1OC (stereo unspecified)
0.0

Strictly below 5 µg/mL: is that where LC50 of "COc1ccc(C(=O)/C=C/c2cccc(Nc3ccnc4cc(Cl)ccc34)c2)cc1" sits?
0.0

Strictly below 5 µg/mL in LC50? CC(=O)N1N=C(c2ccc(Br)cc2)CC1c1cccc(Nc2ccnc3cc(Cl)ccc23)c1 (stereo unspecified)
0.0

Confirm or reject: LC50 of O=CN1N=C(c2ccc(Br)cc2)CC1c1cccc(Nc2ccnc3cc(Cl)ccc23)c1 (stereo unspecified) lies strictly below 5 µg/mL
1.0

Does the reported LC50 of "O=C(Cn1ccnc1[N+](=O)[O-])NCc1ccccc1" stay below 5 µg/mL?
0.0

Dear reviewer, please state whether "O=C(/C=C/c1cccc(Nc2ccnc3cc(Cl)ccc23)c1)c1ccccc1" has LC50 strictly beneath 5 µg/mL.
1.0

Is LC50 strictly under 5 µg/mL for the entry "COc1cc(C(=O)/C=C/c2cccc(Nc3ccnc4cc(Cl)ccc34)c2)cc(OC)c1OC" ?
1.0

is_below(LC50, 5 µg/mL) for COc1cc(C2=NN(c3cc(Cl)cc(Cl)c3)C(c3cccc(Nc4ccnc5cc(Cl)ccc45)c3)C2)cc(OC)c1OC (stereo unspecified) ?
0.0

Consider the compound COc1ccc(C2=NN(c3ccccc3)C(c3cccc(Nc4ccnc5cc(Cl)ccc45)c3)C2)cc1 (stereo unspecified) . Is its LC50 strictly less than 5 µg/mL?
0.0

In plain terms, does O=CN1N=C(c2ccccc2)CC1c1cccc(Nc2ccnc3cc(Cl)ccc23)c1 (stereo unspecified) come in under 5 µg/mL for LC50?
1.0

Answer whether the compound Clc1ccc2c(Nc3cccc(C4CC(c5ccc(Br)cc5)=NN4c4ccccc4)c3)ccnc2c1 (stereo unspecified) has LC50 strictly less than 5 µg/mL
0.0

Could you please tell me whether LC50 recorded for Cc1ccc(C2=NN(c3cc(Cl)cc(Cl)c3)C(c3cccc(Nc4ccnc5cc(Cl)ccc45)c3)C2)cc1 (stereo unspecified) is less than 5 µg/mL?
0.0

Threshold test, LC50 < 5 µg/mL: Clc1cc(Cl)cc(N2N=C(c3ccccc3)CC2c2cccc(Nc3ccnc4cc(Cl)ccc34)c2)c1 (stereo unspecified)
0.0

Determine whether this compound shows LC50 lower than 5 µg/mL (ties excluded): Clc1cc(Cl)cc(N2N=C(c3ccc(Br)cc3)CC2c2cccc(Nc3ccnc4cc(Cl)ccc34)c2)c1 (stereo unspecified)
0.0

Report whether reported LC50 is lower than 5 µg/mL (strictly) for O=CN1N=C(c2ccc(Cl)cc2)CC1c1cccc(Nc2ccnc3cc(Cl)ccc23)c1 (stereo unspecified)
1.0

Quick check: LC50 of COc1ccc(C2=NN(c3ccc(Cl)cc3)C(c3cccc(Nc4ccnc5cc(Cl)ccc45)c3)C2)cc1 (stereo unspecified) under 5 µg/mL?
0.0

* * *

# System: KM12
# ASSAY_METHOD_TEXT: Growth inhibition of human KM12 cells at 10 uM incubated for 48 hrs by sulforhodamine B assay
# Type: functional, cell-based
Active and inactive are the calls of the source. The rule behind the calls is not given here.
Could you please pick one outcome from this set? active, inactive

[
  {
    "MOLECULE": "COc1ccc(C2=NN(c3ccccc3)C(c3cccc(Nc4ccnc5cc(Cl)ccc45)c3)C2)cc1 (stereo not given)",
    "LABEL_CLASS": "inactive"
  }
]

// return assay outcome for COc1ccc(C2=NN(C=O)C(c3cccc(Nc4ccnc5cc(Cl)ccc45)c3)C2)cc1 (stereo not given)
active

Hello, I am checking results. What call was entered for "COc1cc(C(=O)/C=C/c2cccc(Nc3ccnc4cc(Cl)ccc34)c2)cc(OC)c1OC" ?
active

Hey, what did the test say about O=CN1N=C(c2ccc(Cl)cc2)CC1c1cccc(Nc2ccnc3cc(Cl)ccc23)c1 (stereo not given) ?
active

Could you check what this test reported for Clc1ccc(C2=NN(c3cc(Cl)cc(Cl)c3)C(c3cccc(Nc4ccnc5cc(Cl)ccc45)c3)C2)cc1 (stereo not given) ?
inactive

Please share the test call associated with COc1cc(C2=NN(c3ccc(Cl)cc3)C(c3cccc(Nc4ccnc5cc(Cl)ccc45)c3)C2)cc(OC)c1OC (stereo not given) .
inactive

How did this test come out for "COc1ccc(C(=O)/C=C/c2cccc(Nc3ccnc4cc(Cl)ccc34)c2)cc1" ?
active

Record request — test call for Clc1ccc(C2=NN(c3ccccc3)C(c3cccc(Nc4ccnc5cc(Cl)ccc45)c3)C2)cc1 (stereo not given)
inactive

Each molecule tested received a call. Report the one for Clc1ccc(C2=NN(c3ccc(Cl)cc3)C(c3cccc(Nc4ccnc5cc(Cl)ccc45)c3)C2)cc1 (stereo not given) .
inactive

Recorded test outcome, item COc1ccc(C2=NN(c3ccc(Cl)cc3)C(c3cccc(Nc4ccnc5cc(Cl)ccc45)c3)C2)cc1 (stereo not given)
inactive
